src = paper PMC3961306

# System: panel of more than 300 wild-type and mutant kinases (313 kinase panel) (Homo sapiens, UniProt O00311)
# Experiment Description: Kinase profiling in a biochemical assay panel (mobility shift assays and ELISA), %-inhibition at 1 μM; selectivity entropy
# Test Conditions: kinase CDC7/ASK; 1 μM compound
Measurement Kind: %-inhibition, CDC7/ASK
Quote the value and follow it with the unit of measurement.

Consider the worked cases shown below.
Molecule	%-inhibition, CDC7/ASK
Cc1cn(-c2cc(NC(=O)c3ccc(C)c(Nc4nccc(-c5cccnc5)n4)c3)cc(C(F)(F)F)c2)cn1	-7%
COc1cc2c(Nc3ccc(Br)cc3F)ncnc2cc1OCC1CCN(C)CC1	-6.41%
COc1cc(Nc2c(C#N)cnc3cc(OCCCN4CCN(C)CC4)c(OC)cc23)c(Cl)cc1Cl	-5.36%
CC(=O)Nc1cccc(-n2c(=O)n(C3CC3)c(=O)c3c(Nc4ccc(I)cc4F)n(C)c(=O)c(C)c32)c1	-8%
CS(=O)(=O)CCNCc1ccc(-c2ccc3ncnc(Nc4ccc(OCc5cccc(F)c5)c(Cl)c4)c3c2)o1	3%

Please give %-inhibition, CDC7/ASK, item by item, for the list that follows.
1. O=S(=O)(c1cccc2cnccc12)N1CCCNCC1
2. CC(C)(C)c1nc(-c2cccc(NS(=O)(=O)c3c(F)cccc3F)c2F)c(-c2ccnc(N)n2)s1

Result:
1. -7%
2. -6%

Task: For the molecule COc1cc2nccc(Oc3ccc(NC(=O)C4(C(=O)Nc5ccc(F)cc5)CC4)cc3)c2cc1OC [cabozantinib] , report %-inhibition, CDC7/ASK.
Result: -3.4%
